Can you tell me ΔG for the items I'm about to list?
Target: T1, 2PT-NBD1 (human CFTR nucleotide-binding domain 1, residues 387-646, with S492P, A534P, I539T) (human, UniProt P13569 388-646, biotinylated for the ELISA (sites not given))
T1 construct: N-terminal His6-SUMO tag removed with Ulp1; In the T2a-T4 and T27 crystals the domain was cut by papain or subtilisin
T1 sequence (P13569 388-646 V470M/S492P/A534P/I539T limits assumed): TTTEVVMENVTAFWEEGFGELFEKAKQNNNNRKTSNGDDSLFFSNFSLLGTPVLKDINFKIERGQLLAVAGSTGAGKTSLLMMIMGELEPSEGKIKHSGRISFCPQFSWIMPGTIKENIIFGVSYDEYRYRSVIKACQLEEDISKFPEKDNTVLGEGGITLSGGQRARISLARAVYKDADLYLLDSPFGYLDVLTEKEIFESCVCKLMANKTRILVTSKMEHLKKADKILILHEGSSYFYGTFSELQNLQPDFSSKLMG
Experiment: ITC, nanobody titrated into 2PT-NBD1 at 20 °C, one-site model
Description: Isothermal titration calorimetry (ITC) was used to characterize the thermodynamic parameters of the binding (FIG. 1e and FIG. 9). […] These KD values are similar to those measured for other in vivo matured camelid heavy-chain antibodies interacting with their ligands^{[20]}. The thermodynamic parameters of the interaction of nanobodies with 2PT-NBD1 were determined based on these ITC measurements (FIG. 1e and FIG. 9). […]

1) Nanobody T2a (VHH, not shown: small tags and cut ends, Llama nanobody; also called Nb T2a; T2a Nb) VHH: QVQLQESGGGLVQAGGSLRLSCAASGSIFRIDAMGWYRQAPGKQRELVAHSTSGGSTDYADSVKGRFTISRDNAKNTVYLQMNSLKPEDTAVYYCNADVRTRWYASNNYWGQGTQVTVSS; -9.7 kcal/mol
2) Nanobody T27 (VHH, not shown: small tags and cut ends, Llama nanobody; also called NbT27; T27 Nb) VHH: QVQLQESGGGLEQPGGSLRLSCATSGVIFGINAMGWYRQAPGKQRELVATFTSGGSTNYADFVEGRFTISRDNAKNTVYLQMNGLRPEDTAVYYCHATVVVSRYGLTYDYWGQGTQVTVSS; -10.2 kcal/mol
3) Nanobody G3a (VHH, not shown: small tags and cut ends, Llama nanobody, non-stabilizing; also called Nb G3a; G3a Nb) VHH: QVQLQESGGGLVQAGGSLRLSCTASGRAFSWYVMGWFRQAPGKEREFVATVSGNGSRRDYADSVKGRFTISRDNAKNTVYLQMNSLKPEDTAVYYCAASSTYYYTDPEKYDYWGQGTQVTVSS; -7.98 kcal/mol

// moving on: another record for ΔG
Query: What value of measured ΔG is listed for Nanobody T8 (VHH, not shown: small tags and cut ends, Llama nanobody; also called Nb T8; T8 Nb) VHH: QVQLQESGGGLVQPGGSLRLSCAASGSTSSINAMGWYRQAPGKQREPVAISSSGGDTRYAEPVKGRFTISRDNAQNKVYLQMNSLKPEDTAVYYCWLNWGRTSVNSWGQGTQVTVSS ?
Response: -9.94 kcal/mol
